System: SR
Assay: NCI tumour cell line growth inhibition, 48 h
Active and inactive are the calls of the source. No stated cut-off is given here; in the data, active = GI50 up to about 1.1 µM and inactive = higher.
Reported GI50 values for a set of molecules
Observable: GI50

• CC(=O)O[C@]12CCC[C@H]1C1(O)C(O)CCC[C@H]12 (stereo partly specified) = > 100 µM (inactive)
• O=c1cc(CNC2CC3CCC2C3)[nH]c(=O)[nH]1 (stereo unspecified) = > 100 µM (inactive)
• COC(=O)C(=O)C(C(=O)C=C(C)C)C(=O)C(=O)Nc1ccc(C)cc1C (stereo unspecified) = > 100 µM (inactive)
• COc1cc(O)c2c(=O)cc(-c3ccc(O)cc3O)oc2c1CC=C(C)C [ARTOCARPETIN A] = 4.5 µM (inactive)
• C=CC(=O)NCNC(=O)C=C = > 100 µM (inactive)
• CO/C=C(/C(=O)OC)c1ccccc1COc1cccc(C(F)(F)F)c1 = 0.646 µM (active)
